target of assay: AMPK
assay text: AMPK activation, enzyme-linked immunosorbent assay
measurement parameters: EC50 for AMPK activation, ELISA
This section presents compounds with their documented EC50 values.

Exercise: Read the entry COc1cccc(CC2CCN(C(=O)c3ccc(C(=O)NC4CCN(Cc5ccc(C#N)cc5)CC4)nc3)CC2)c1 and write its reported EC50.
Key: < 500 nM

Exercise: Supply EC50 value. Item: CS(=O)(=O)c1ccc(OC2CCN(C(=O)c3ccc(C(=O)Nc4ccc(Oc5ccc(F)cc5)nc4)cn3)CC2)cc1
Key: < 500 nM

Exercise: Give the measured EC50 for N#Cc1ccc(CN2CCC(NC(=O)c3ccc(C(=O)N4CCC(C(=O)c5ccc(F)cc5F)CC4)nc3)CC2)cc1
Key: < 500 nM

Exercise: Determine from records and report EC50 for N#Cc1ccc(CN2CCC(NC(=O)c3ccc(N4CCC(Oc5ccc(C(F)(F)F)cc5)CC4)nn3)CC2)cc1
Key: < 500 nM

Exercise: Could you please provide reported EC50 for CC(=O)c1ccc(OC2CCN(C(=O)c3ccc(C(=O)NC4CCN(Cc5ccc(C#N)cc5)CC4)cn3)CC2)cc1 ? Thanks!
Key: < 500 nM

Exercise: Please supply the value of reported EC50 for the item O=C(c1ccc(C(=O)N2CCN(Cc3ccc(F)cc3)CC2)nc1)N1CCN(Cc2ccc(F)cc2)CC1
Key: 500 to 1000 nM

Exercise: Return the recorded EC50 value; entry: N#Cc1ccc(CN2CCC(NC(=O)c3ccc(N4CCCC(Oc5ccc(C#N)cc5)C4)cn3)CC2)cc1 (stereo not shown)
Key: 1000 to 5000 nM

Entry source: patent US9663496B2
